# test.summary: Viability qHTS for spleen associated tyrosine kinase inhibitor (SYKi) drug resistant MV4-11 cells (AID 1963824); note: nearly all actives have a fitted effect of over 35% in size; note: potency is the fitted concentration of half-maximal effect
# experimental.parameters: SYKi-resistant MV4-11 viability, CellTiter-Glo, 72 h; series mostly up to 45 µM
Records with an inconclusive call do not appear. Active and inactive are the calls of the source. Calls come from the whole dose curve; as a rule, active = well fitted cell-killing curve with a large enough effect; inconclusive = small, poorly fitted or top-dose-only effect, or effect the other way; inactive = no such curve, though single readings can be large or run the other way.
measurement.name: Potency

Worked examples, 9 compounds total:
C[C@H]1C(=O)O[C@@H]2CCN3CC=C(COC(=O)[C@](C)(O)[C@]1(C)O)[C@H]23
inactive
CCc1[nH]c2ccc(OC)cc2c1CCN(C)C
inactive
Cc1cc(C(=O)CN2CCCC2)c(C)n1-c1ccc(F)cc1
16.4 µM (active)
C[C@@H]1CCC/C=C/[C@H]2C[C@@H](O)C[C@@H]2[C@@H](O)/C=C/C(=O)O1
0.146 µM (active)
Cc1ccc(S(=O)(=O)N[C@@H](CCCCN)C(=O)CCl)cc1
inactive
COC(=O)N1CCN(C(=O)Cc2ccc(Cl)c(Cl)c2)[C@@H](CN2CCCC2)C1
inactive
COCC(=O)N(c1c(C)cccc1C)C(C)C(=O)OC (stereo not given)
inactive
COc1ccc2c3c1O[C@H]1[C@@H](O)C=C[C@H]4[C@@H](C2)N(C)CC[C@@]341
30 µM (active)
C[N+]1(C)[C@@H]2CC[C@H]1CC(OC(=O)C(CO)c1ccccc1)C2 (stereo not given in full)
inactive

Now for another entry.
Item COc1cc(N)c(Cl)cc1C(=O)NC1CN2CCC1CC2 (stereo not given) has what recorded Potency?
inactive

---

# test.summary: Quantitative highthroughput screen to assess conditional lethalithy of P12 Ichikawa cells grown in Human Plasma-Like Medium with dialyzed fetal bovine serum (HPLM+ds) (AID 1963879); note: nearly all actives have a fitted effect of over 35% in size
# experimental.parameters: ATP luminescence, 48 h; viability; series mostly up to 45.8 µM
Inconclusive results are not listed. Active and inactive are the calls of the source. The call rests on the fitted dose curve; in most records, active means well fitted cell-killing curve with a large enough effect; inconclusive means small, poorly fitted or top-dose-only effect; inactive means flat fitted curve, though single readings scatter.
Give your call using only these classes: active, inactive

# example entries with known answers
O=c1[nH]c2ccccc2n1C1CCN(Cc2ccc(-c3[nH]c4cc5ncnc5cc4nc3-c3ccccc3)cc2)CC1
inactive
CC[C@H]1C=CC=CC[C@@H](C)[C@H](O)[C@@](C)(O)C(=O)[C@@H](C)[C@H](O)[C@@H](C)C(=O)[C@@H](C)[C@H](O)[C@@H](C)C=CC(=O)O[C@@H]2[C@@H](C)[C@H](CC1)O[C@]1(CC[C@H](C)[C@H](C[C@@H](C)O)O1)[C@H]2C
active
CC(C)c1cccc(C(C)C)c1O
inactive
O=C(N[C@@H](COc1ccc2[nH]c(=O)[nH]c2c1)c1ccccc1)c1cccn(Cc2ccc(F)c(F)c2)c1=O
active
C[C@@H]1O[C@@H](O[C@@H]2C=C3CC[C@@H]4[C@@H](CC[C@]5(C)[C@H](c6ccc(=O)oc6)CC[C@@]45O)[C@@]3(C)CC2)[C@H](O)[C@H](O)[C@H]1O
active
Cc1nc(-c2ccc(-c3ccc(C(=O)N4CCc5cc6c(cc54)C4(CCN(C)CC4)CO6)cc3)c(C)c2)no1
inactive
CC(=Cc1csc(C)n1)[C@@H]1C[C@H]2O[C@@H]2CCC[C@H](C)[C@@H](O)[C@@H](C)C(=O)C(C)(C)[C@@H](O)CC(=O)O1
inactive
CO[C@H]1CCC(O[C@H]2C[C@H]([C@]3(C)CC[C@]4(C[C@H](O)[C@@H](C)[C@@H]([C@@H](C)C=C(C)C(=O)[C@H](C)C[C@H](C)C(=O)O)O4)O3)O[C@]3(O[C@@H]([C@H]4O[C@@](O)(CO)[C@H](C)C[C@H]4C)C[C@H]3C)[C@H]2C)O[C@H]1C (some centres not stated)
active

Can you look up the reported call for "Cn1cc(C2=C(c3cn(C4CCN(Cc5ccccn5)CC4)c4ccccc34)C(=O)NC2=O)c2ccccc21" for me?
inactive

Can you look up the reported call for "C[C@H]([C@H](O)CCC(C)(C)O)[C@H]1CC[C@@]2(O)C3=CC(=O)[C@@H]4C[C@@H](O)[C@@H](O)C[C@]4(C)[C@@H]3CC[C@]12C" for me?
inactive

Can you look up the reported call for "CNC(=O)c1ccc(N2C(=S)N(c3ccc(C#N)c(C(F)(F)F)c3)C(=O)C23CCC3)cc1F" for me?
inactive

Can you look up the reported call for O=P1(N(CCCl)CCCl)NCCCO1 (configuration not stated) for me?
active

Can you look up the reported call for "COc1ccc(N(C(=O)Oc2c(C)cccc2C)c2ccnc(Nc3ccc(N4CCN(C)CC4)cc3)n2)c(OC)c1" for me?
inactive

Can you look up the reported call for "CC(C)(C)c1cc(C=C(C#N)C#N)cc(Br)c1O" for me?
inactive

Can you look up the reported call for "C=C1C[C@H]2[C@H]3CCC(=O)[C@@]3(C)CC[C@@H]2[C@@]2(C)C=CC(=O)C=C12" for me?
inactive

Can you look up the reported call for "CC(=O)O[C@@]12CO[C@H]1C[C@H](O)[C@@]1(C)C(=O)[C@H](O)C3=C(C)[C@@H](O)C[C@@](O)([C@@H](OC(=O)c4ccccc4)[C@@H]21)C3(C)C" for me?
active

Can you look up the reported call for C=C[C@@H]1CN2CCC1C[C@@H]2[C@@H](O)c1ccnc2ccccc12 (some centres not stated) for me?
inactive

---

# test.summary: Viability qHTS for spleen associated tyrosine kinase inhibitor (SYKi) naive MV4-11 cells (AID 1963823); note: nearly all actives have a fitted effect of over 40% in size
# experimental.parameters: MV4-11 AML viability, CellTiter-Glo luminescence, 72 h; series mostly up to 45 µM
Inconclusive results are not listed. The source made the active and inactive calls. Calls come from the whole dose curve; as a rule, active = well fitted cell-killing curve with a large enough effect; inconclusive = small, poorly fitted or top-dose-only effect, or effect the other way; inactive = no such curve, though single readings can be large or run the other way.
Give your call using only these classes: true (1) = active, false (0) = inactive

CC[C@@]1(O)C(=O)OCc2c1cc1n(c2=O)Cc2cc3ccccc3nc2-1
true (1)

Can you look up the reported call for "O=C(N[C@@H](COc1ccc2[nH]c(=O)[nH]c2c1)c1ccccc1)c1cccn(Cc2ccc(F)c(F)c2)c1=O" for me?
true (1)

Can you look up the reported call for "CC[C@@H]1C[C@H]2CC[C@H](O2)[C@H](C)C(=O)O[C@@H](C)C[C@@H]2CC[C@@H](O2)[C@@H](C)C(=O)O[C@H](C)C[C@H]2CC[C@H](O2)[C@H](C)C(=O)O[C@@H](C)C[C@@H]2CC[C@@H](O2)[C@@H](C)C(=O)O1" for me?
true (1)

Can you look up the reported call for CC(NC(C)(C)C)C(=O)c1cccc(Cl)c1 (stereo unspecified) for me?
false (0)

Can you look up the reported call for "Cc1ncsc1CCCl" for me?
false (0)

Can you look up the reported call for "Clc1ccc([C@]23CNC[C@H]2C3)cc1Cl" for me?
false (0)

Can you look up the reported call for "CCN1C[C@]2(COC)[C@H](O)C[C@H](OC)[C@]34[C@@H]5C[C@]6(O)[C@H](OC(=O)c7ccccc7)[C@@H]5[C@@](O)([C@H]([C@H](OC)[C@H]23)[C@@H]14)[C@@H](O)[C@@H]6OC" for me?
false (0)

Can you look up the reported call for "CCCN1CCO[C@@H]2c3cc(O)ccc3OC[C@H]21" for me?
false (0)

Can you look up the reported call for CCC(OC(C)=O)C(CC(C)NC)(c1ccccc1)c1ccccc1 (stereo unspecified) for me?
true (1)

Can you look up the reported call for "O=C(N/N=C/c1ccc([N+](=O)[O-])o1)c1cc([N+](=O)[O-])cc([N+](=O)[O-])c1O" for me?
false (0)

---

# System: Chikungunya virus nsP2 protease
# test.summary: Confirmatory qHTS for inhibitors of NSP2Pro chikungunya virus (CHIKV) (AID 1964105); note: nearly all actives have a fitted effect of over 75% in size
# experimental.parameters: CHIKV nsP2 protease enzymatic activity; series mostly up to 25.5 µM
Some of the results follow. Records with an inconclusive call do not appear. Activity calls are given as the source filed them. The call rests on the fitted dose curve.
Give your call using only these classes: active, inactive

# example entries with known answers
C=CC(=O)c1ccc2ccccc2c1
active
COC([CH2][Hg])CNC(=O)c1ccccc1OCC(=O)O (centres undefined)
active
CCOc1ccc(N(Cc2ccccc2)C(=O)c2nc(S(C)(=O)=O)ncc2Cl)cc1
active
C[C@@H]1C[C@@H](O)[C@@]23CO[C@]2(CO)C[C@@H](O)CC3[C@@]12CC(c1ccoc1)OC2=O (some centres undefined)
inactive
Cn1nnnc1Sc1ncnc2n[nH]c(-c3cccc(S(C)(=O)=O)c3)c12
active

Can you look up the reported call for "O=C(O)c1cccc(-n2[nH]c(-c3ccccc3)cc2=O)c1" for me?
inactive

Can you look up the reported call for CCOc1ccc(NC(=O)c2c(NC(=O)Cc3ccccc3)sc3c2CCC(C)C3)cc1 (centres undefined) for me?
active

Can you look up the reported call for CCC(C)C(=O)OC1C(C)C2(O)C(C=C(CO)CC3(O)C(=O)C(C)=CC32)C2C(C)(C)C12OC(=O)C(C)C (centres undefined) for me?
inactive

Can you look up the reported call for "CCOc1ccc(NC(=O)c2c(NC(=O)Cc3ccccc3)sc3c2CCCCC3)cc1" for me?
active
